The following compounds are listed with their measured Replica assessment value (average of n = 5) values.
- Tested on: cheeks of healthy human males
- measurement.notes: Human pore-shrinking effect (replica of cheek pores, three-dimensional laser scanning microscope)
- Type: in vivo
- study.conditions: sample 3 mass %; twice a day for one month; pore size rating (1-13) after minus before application; control 0.3
- Experimental: An experiment was conducted whereby a sample was applied twice a day for one month to the cheeks of healthy human males in groups of 5 men each. Aqueous solutions (containing 15 mass % of ethanol) of 3 mass % of the β-alanine derivative or a salt thereof were prepared mainly as the evaluation sample. The pH was regulated by hydrochloric acid or sodium hydroxide so as to be 7.0 to 7.5. When the sample solubility was low, the solution was prepared accordingly. […]
Just the number.

Previously resolved entries follow.
In [3]: df
Out[3]:
                                   compound                    test_target  quantitative_result
0  Cl.NCCC(N)=O [β-alanine amide hydrochloride salt]  cheeks of healthy human males                 −0.3
1                        O=C(O)CCNCc1ccccc1  cheeks of healthy human males                 −0.8
2          COc1cc(C(=O)NCCC(=O)O)cc(OC)c1OC  cheeks of healthy human males                 −0.6
3                        O=C(O)CCNCC1CCCCC1  cheeks of healthy human males                 −0.8
4                COc1cccc(C(=O)NCCC(=O)O)c1  cheeks of healthy human males                 −1.0

Which measured Replica assessment value (average of n = 5) value corresponds to O=C(O)CCNC(=O)C1CCCCC1 ?
−0.6

Then this compound: COc1ccccc1C(=O)NCCC(=O)O
−0.9

Entry to check: O=C(O)CCNc1ccccn1
−0.8

Again, but for O=C(O)CCNC1CCCCC1
−0.9

Next compound up: O=C(O)CCNS(=O)(=O)c1ccccc1
−0.7

###

- System: hairless mice (HR-1)
- measurement.notes: Inhibiting effect on rough skin induced by oleic acid application (transepidermal water loss)
- Assay type: in vivo, mouse
- study.conditions: in words, summary of Table 3
observation.type: rough skin preventing/ameliorating effect (ΔTEWL value versus control aqueous solution)

Example compounds with recorded rough skin preventing/ameliorating effect (ΔTEWL value versus control aqueous solution):
In [3]: df
Out[3]:
                                   compound           test_target              result
0           CNCCC(=O)O [N-methyl-β-alanine]  hairless mice (HR-1)     effect was seen
1  CN(CCC(=O)O)C1CCCCC1 [N-cyclohexyl-N-methyl-β-alanine]  hairless mice (HR-1)     effect was seen
2  CC(=O)NCCC(=O)O [N-acetyl-β-alanine, reference compound]  hairless mice (HR-1)  no effect was seen
3  O=C(O)CCNC(=O)c1ccccc1 [N-benzoyl-β-alanine]  hairless mice (HR-1)     effect was seen
4  O=C(O)CCNC(=O)C1CCCCC1 [N-cyclohexylcarbonyl-β-alanine]  hairless mice (HR-1)     effect was seen
5  Cl.NCCC(N)=O [β-alanine amide hydrochloride salt]  hairless mice (HR-1)     effect was seen

For O=C(O)CCNC(=O)c1cccnc1 [N-nicotinoyl-β-alanine] , what is its reported rough skin preventing/ameliorating effect (ΔTEWL value versus control aqueous solution)?
effect was seen

Okay, and NC(=O)NCCC(=O)O [3-ureidopropionic acid, reference compound] ?
no effect was seen

###

- Tested on: hairless mouse (HR-1)
- measurement.notes: Parakeratosis-inhibiting effect test (oleic acid applied to back of hairless mouse; visual rough skin evaluation and parakeratosis value)
- Format: in vivo
- study.conditions: sample 3 mass %; rough skin score, control = 2.0, no skin roughness = 0.0; 3 days application after 10 mass % oleic acid
The entries below are paired with their reported Visual evaluation (average of four animals).
Could you respond with only the numeric value?

Some solved entries appear below for comparison.
>>> df
                     compound  quantitative_result
0      O=C(O)CCNC(=O)c1ccccc1                  1.1
1    COc1ccccc1C(=O)NCCC(=O)O                  1.1
2  COc1cccc(C(=O)NCCC(=O)O)c1                  1.2

Below: the item to evaluate.
So what does the record say about Visual evaluation (average of four animals) for O=C(O)CCNC(=O)C1CCCCC1 ?
1.1

###

- Tested on: hairless mouse (HR-1)
- measurement.notes: Parakeratosis-inhibiting effect test (oleic acid applied to back of hairless mouse; visual rough skin evaluation and parakeratosis value)
- Assay type: in vivo
- study.conditions: in words, summary of Table 1
observation.type: parakeratosis-inhibiting effect

>>> print(df.to_string())
                                   compound               result
0  NC(=O)NCCC(=O)O [3-ureidopropionic acid, reference compound]  effect was not seen
1  N=C(N)NCCC(=O)O [3-guanidinopropionic acid, reference compound]  effect was not seen
2  CC(=O)NCCC(=O)O [N-acetyl-β-alanine, reference compound]  effect was not seen

###

- Test system: hairless mice (HR-1)
- measurement.notes: Inhibiting effect on rough skin induced by oleic acid application (transepidermal water loss)
- Assay type: in vivo, mouse
- Set-up: unit not given here
- study.conditions: sample 3 mass %; average of four mice; 3 days after 10 mass % oleic acid; control 12.0; increase = rough skin worse
observation.type: ΔTEWL value
Answer with a number only.

Below, 3 molecules whose answers are already recorded.
In [3]: df
Out[3]:
                                   molecule  observation_type  quantitative_result
0                    O=C(O)CCNC(=O)C1CCCCC1       ΔTEWL value                  8.0
1                                CNCCC(=O)O       ΔTEWL value                  6.8
2  CC(=O)NCCC(=O)O [N-acetyl-β-alanine, reference compound]       ΔTEWL value                 12.1

May I ask what ΔTEWL value has been recorded for O=C(O)CCNc1ccccn1 ?
5.5

Moving on to the next molecule: O=C(O)CCNS(=O)(=O)c1ccccc1
5.4

// same read-out, input: O=C(O)CCN1CCCCC1 [3-(1′-piperidine)-propionate, 3-(1′-piperidine)-propionic acid]
5.5

Ok, now COc1cc(C(=O)NCCC(=O)O)cc(OC)c1OC
6.9

###

ΔTEWL value values, listed per item
- Tested on: hairless mice (HR-1)
- measurement.notes: Inhibiting effect on rough skin induced by oleic acid application (transepidermal water loss)
- Assay type: in vivo, mouse
- Parameters: unit not given here
- study.conditions: sample 3 mass %; average of four mice; 3 days after 10 mass % oleic acid; control 12.0; increase = rough skin worse
Output: the number by itself.

>>> print(df.to_string())
                                   compound  quantitative_result
0  O=C(O)CCNC(=O)c1ccccc1 [N-benzoyl-β-alanine]                  4.0
1  COc1ccccc1C(=O)NCCC(=O)O [N-(2′-methoxybenzoyl)-β-alanine]                  7.0
2  CN(CCC(=O)O)C1CCCCC1 [N-cyclohexyl-N-methyl-β-alanine]                  5.5
3  O=C(O)CCNC1CCCCC1 [N-cyclohexyl-β-alanine]                  9.0

Turning now to a further compound:
Name the recorded ΔTEWL value for NC(=O)NCCC(=O)O [3-ureidopropionic acid, reference compound] .
11.9

###

The reader will find reported ΔTEWL value values listed item by item below.
- System: hairless mice (HR-1)
- measurement.notes: Inhibiting effect on rough skin induced by oleic acid application (transepidermal water loss)
- Type: in vivo, mouse
- Design: unit not given here
- study.conditions: sample 3 mass %; average of four mice; 3 days after 10 mass % oleic acid; control 12.0; increase = rough skin worse
Write no unit; give the number alone.

In [3]: df
Out[3]:
                                   compound  observation_type  quantitative_result
0                        O=C(O)CCNCC1CCCCC1       ΔTEWL value                  8.9
1  N=C(N)NCCC(=O)O [3-guanidinopropionic acid, reference compound]       ΔTEWL value                 12.3
2                        O=C(O)CCNCc1ccccc1       ΔTEWL value                  8.9
3  Cl.NCCC(N)=O [β-alanine amide hydrochloride salt]       ΔTEWL value                  8.9

Kindly consider the entry below.
Recorded ΔTEWL value of COc1cccc(C(=O)NCCC(=O)O)c1 , please.
6.9

The measurements presented in this section are drawn from patent US8937090B2.
